# ASSAY NAME: soluble on expression in E. coli; label from the status in PepcDB or PDB records
MEASURE: soluble on expression in E. coli

* MSLAANMYRVGDYVYFENSSSNPYLVRRIEELNKTANGNVEAKVVCLFRRRDISSSLNSLADSNAREFEEESKQPGVSEQQRHQLKHRELFLSRQFESLPATHIRGKCSVTLLNETDILSQYLEKEDCFFYSLVFDPVQKTLLADQGEIRVGCKYQAEIPDRLVEGESDNRNQQKMEMKVWDPDNPLTDRQIDQFLVVARAVGTFARALDCSSSIRQPSLHMSAAAASRDITLFHAMDTLQRNGYDLAKAMSTEGHHHHHH | not soluble
* MIRIDSVTKRYPDGTVAVDRLSLEIPDRSITVLVGPSGCGKTTTLRMINRMVEPSEGTILLDGADITKQPVNTLRRSMGYVIQNAGLFQHRTIVDNIATVPRMLGWGKERARSRARELMERVGLDASLARRYPYQLSGGQQQRVGVARALASDPPVLLMDEPFSAVDPVVRKGLQEELLRIQDELGKTIVFVTHDIDEAIRLGTMVAVMRTGGHLAQFAPPAELLSAPADAFVEDFLGTDRGIRRLSFFPSAGLELLTTPVVAIDSTAEQIAARGTPDVPYLLVTDVDGKALGWSEPKDLTAGKVVPERLLPYGRPFESGKDSLRAALDCAVLSPTGWAVAVDGTGRVVGVVSQETIGEAIRGAHAERRKADLAGLEHHHHHH | not soluble

----------
# ASSAY NAME: soluble on expression in E. coli; label from the status in PepcDB or PDB records
MEASURE: soluble on expression in E. coli

Please review the following examples before continuing.
• MSLQARVAAPVVAKEREELVDRIEGETSAADELEKSVDELRDDVDARRREALEKSGDGDRSDLVGILSGAVEVHGPGVKLVVNDAKDVATGADGQPRGTSGFSDTGRVRDRDMQRVVNGLWESGAEAISVNGQRLTALSAIRAAGDAILVDNRPLVPPYTVLAVGDGERLSRGFQDSADGLYLHALEESYGIRTAISVADDLKLPAAPSVIVRTAQPITEKGTSEGHHHHHH = soluble
• MMSIFRKLMPREDRFFDMFSKHSETVIKAAAALDQLLSGIDVEKNCDLIVALENQADDITREVLLAVRRSFITPFDRGDIKDLIQSMDDAIDMMHKTVKTIRLFEQSEFDPLMKEMGHEIVRAAGLIAEAIPLLNKVGANAQRLSAIAEEVTRVEGRSDDLHDQGLKDLFRRHGANGNAMAYMIGSEIYGELEKVVDRFEDVANEISGIVIENVLEHHHHHH = soluble
• MTLPRFDQIRPKIEQHIREVKDFPKKGINFRDIMPLFTNPQLVNELCVVIADHVRHTVGHVDSVAGLEARGFLFGPQVAIQLGVPFVPIRKKGKLPGATIEASYVKEYGEDRVEIQEGAIKNGDIVFLIDDLLATGGTLRAATDLVVKAGGKVGEAFVLIELAPLNGRSKLPDVNLTTLISYDSA = not soluble
• AESLPDLKIEKLDEGVYVHTSFEEVNGWGVVPKHGLVVLVNAEAYLIDTPFTAKDTEKLVTWFVERGYKIKGSISSHFHSASTGGIEWLNSRSIPTYASELTNELLKKDGKVQATNSFSGVNYWLVKNKIEVFYPGPGHTPDNVVVWLPERKILFGGCFIKPYGLGNLGDANIEAWPKSAKLLKSKYGKAKLVVPSHSEVGDASLLKLTLEQAVKGLNESKKPSKPSN = soluble

Entry `ENEIERPEDMRVRTLANKSKMKVSIVQQIDRKVALDDIAVSHGLDFPELLSEVETIVYSGTRINIDYFINEVMDEDHLEDIFEYFKESTTDSLEEAMQELGKDYSEEEIRLVRIKFLSEMAN` : reported soluble on expression in E. coli = ? soluble

Entry `MSSGSSNFLLVPIPEYPVLDCVPNKNVKIVVLGASNVGKTALIVRFLTKRFIGDYEANTGALYSRKINLDGEQVSLQVQDTPCVSLQDDADGLYCQEQINRSITGRTVMCSSSPSLTSTATAPSSLSTNMCAESTPAVTSLSSSWETRATFCEPDRSQIPKGRRWRMNWEGYTLRLRPGRTTRASRQLFCTYVRR` : reported soluble on expression in E. coli = ? not soluble

Entry `MAHHHHHHMGVGFQSKKLQNFCHSGAGEMCALENCIPRWGSFPCNAPGLTPVYELSSFENVELPLIFQKSNIGDLLASTSDSVGQLNGFQARHSNTEGIKSQVSYTSVALSTTNRENLFGWVDCAALPLCSSSTAGASILLVTLLTRESRGKSCMCILDDLVCQLSNGPFNWGCGGDCHDLISISLPSEPRNHAACPIILPIAKLSRKEIWLREAAPKMDVETIIYEGDNQQHLVDDVANGTNAGSCAVMEAGCRPETALGPENVKYGDNESVTQCEVTVDITPSTEPSARCLHFSECTTPVSSNRSFMEPIPLSNMESKALRCRKFDGTSYEVLRRRAHSDALSLILKKYSEHLERVSQTSGRRGLDAHC` : reported soluble on expression in E. coli = ? soluble

----------
# ASSAY NAME: soluble on expression in E. coli; label from the status in PepcDB or PDB records
MEASURE: soluble on expression in E. coli

- MRDKTLKAILAHAEAEHPKECCGVVAQKSRVEKYFPCENLATNPTEQFHLDPTGYVEAEDWGTITAIVHSHPDATTQPSELDMAQCDNNELPWHIVSWPEGDLRTIQPRGDLPLVGREFVLGHTDCWGLIMSYFRQTHDIELKDYRVDRHWWESGTENFYMDNWYECGFREFSGPAQPGDLIIMQVSAPVANHGGILLEDGMLLHHPYGQLSQRVPYGGYWQERTMKVVRYEISQL: not soluble
- MEESPTKTFKCPKCWNKFENKPKLITHVDLECKHKYFRCELCDFKSTQKTGLTSHYHGHIRQSNVIHCPYCKKKKTFKSRNNLMVHVHHYHPTHINEMKQANLESAKEEKMKTMLEKQAKEAHEFEISQPAVFEKDFASYDLPMFSQCPPMNGIPVSTPIEYPYSQNPYQDHTPFDSYPYPNFHPQQLPLPTFENNLPDIATYFDL: not soluble
- MSLRGGETLEYDPDVLDENVEIEVGDVVEIKKFEKTEVYVSGYVSRPGVYEISPKENVTLEKLLSMAGGIKGTLEEVDSIVVTRDGSVITLSPNNLDFSVKPGDVVNVKEFVPKKAYVLGYVRNPGLYTFGKNEAFTLRNLIAKAGGFVDEGQVVSVKVAGKEYSEGHHHHHH: soluble
- MSLGNIKTLLENRFKKPTSDKMESLAKKRLEGELSPFLNGFTNPKLSSQEEAKFRQLLEEYSFSNEISKHDLQQLCHLSAQVKQIHHQAVLLHGERIKKVRELLTSYREGAFSAWLLLTYGNRQTPYNFLVYYELFSTLPDSLKLELEKLPRQAVYTLAAREGTQEKKEAIIRNYQGETKGELLEIIRKEFPLLPTDRRHTPLSQKAFTLLAKGTKLLRQCTDVSHEELIALEKLIKKLQKVTTNLLSNTKVSRNDNEIQNSRNEGHHHHHH: soluble

----------
# ASSAY NAME: soluble on expression in E. coli; label from the status in PepcDB or PDB records
MEASURE: soluble on expression in E. coli

* MVGGMMESYSKFHTILNELKHSAAQFDRQRGEHHRPLFDEVLFHCHGKLLTPCVEEAHSTLQALIREKESGRLTALRAEYLSERLLAQIAALTRELSTQNVRRNEPKPHAYFKKPINELYQELAQHQDWERRLMDLVRDKALLLEQASATEKAAAQQALLQSEQRLNRCREAKIKIEKRITTQERKA | not soluble
* NTEEKFVRAEEKAKRSKMLIDMKSEQYNMITEKIEKTRKSRHDIHHHINVVYQLAKENKIEQLIEYLEEYNKIYSTKEPMVYCNNSTVDAILNHYILLAKDNGIEVHLNVALPEELKIRDTDLCIVIGNLLENAIEASEKEENKRIKLRINRSNEYICMLVSNLYNGEIKKGHSGYYSRKREFKDTGIGLSSVSAVVEKYDGRMEVDHTNGEFNVFIMMANISSNLT | not soluble

----------
# ASSAY NAME: soluble on expression in E. coli; label from the status in PepcDB or PDB records
MEASURE: soluble on expression in E. coli

• MAHHHHHHMGADIKLLLIDFDGTLFVDKDIKVPSENIEAIKEAIEKGYMVSICTGRSKVGILSAFGEENLKKMNFYGMPGVYINGTIVYDQIGYTLLDETIETDVYAELISYLVENNLVNQTIFHRGESNYVTEDNKYSDFLQKMYSENRSIIIRHNEMLKYRTMNKLMIVLDPSESKTVIGNLKQKFKNKLTIFTTYNGHAEVNKLGHDKYTGINYLLKHYNISNDQVLVVGDAENDIAMLSHFKYSFAVANATNSAKSHAKCVLPLSHKEGAVAYLLKKVFDLKK = not soluble
• FPAISEHFTEDYSSHTEQMLDLVLDSTDMRIEDGKRINPAFMFAAMLWYPLCALADKLMDQHNLCHYDAIMEASNIILDDQVRTIAIPRRHTATIREIWQLQLRLPRRNGKRAFRLMELNKFRAGFDFLEMRGEIEGGDTLKLAKWWETFQNAGREMRQAMAADLDGQAPKSGQRRRKTFRKKKSKPKS = not soluble

Each recorded value in this set is attributed to the DeepSol protein solubility set.
